// data source = the RNAGym collection of RNA variant scans (doi:10.1073/pnas.2313332121)

B1: TPR t1 (parent)
chain: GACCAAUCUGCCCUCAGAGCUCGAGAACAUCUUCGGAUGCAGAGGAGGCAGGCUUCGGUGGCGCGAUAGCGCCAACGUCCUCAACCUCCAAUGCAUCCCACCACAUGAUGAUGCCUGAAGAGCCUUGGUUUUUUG

Variants of: B1
assaySummary: polymerase ribozyme fitness, log enrichment relative to wild type (log ratio); higher = more active; in vitro selection for triplet polymerase activity
Short version: polymerase ribozyme fitness (log ratio) at least -3 is label 1, less is label 0.

INSERT INTO assay_data (mutationname, labelclass) VALUES
  ('U7A C13U G71A C115U G128A', 'label 1'),
  ('G36C G44A A74U C79G C101U', 'label 0'),
  ('C40G C94A', 'label 1'),
  ('C56A C123G', 'label 1'),
  ('G10U G110C', 'label 0');

// next entry
Prompt: Is polymerase ribozyme fitness (log ratio) at least -3? Consider C4G U9C C15A U55C C73A C79G
Completion: label 1
